# Tested on: UACC-62 melanoma
# assayProtocol: NCI tumour cell line growth inhibition, 48 h
Please provide measured TGI for the entries that follow.

Query: Please report TGI with UACC-62 melanoma for item `O=C1/C(=C/c2ccc(Cl)cc2)CCC/C1=C\c1ccc(Cl)cc1` .
Result: > 100 µM

Query: Please report TGI with UACC-62 melanoma for item `CCOC(=O)C#Cc1c(C(=O)OCC)nnn1Cc1ccc([N+](=O)[O-])cc1` .
Result: 4.42 µM

Query: Please report TGI with UACC-62 melanoma for item `CCOC(=O)c1cnc2sc3ccc4ccccc4c3n2c1=O` .
Result: > 100 µM

Query: Please report TGI with UACC-62 melanoma for item CC1=C(C(=O)Nc2cc(Cl)c3[nH]ncc3c2)C(c2ccc(C(F)(F)F)cc2)CC(=O)N1 (stereo not given) .
Result: > 25 µM

Query: Please report TGI with UACC-62 melanoma for item `CN(Cc1cc(Br)cc(Br)c1O)Cc1c(O)ccc2ccccc12` .
Result: 41.3 µM

Query: Please report TGI with UACC-62 melanoma for item `CC(=O)O[C@@]1(C)[C@@H](C)C(=O)O[C@@H]2CCN3CC=C(COC(=O)[C@]1(C)O)[C@H]23` .
Result: > 100 µM

Query: Please report TGI with UACC-62 melanoma for item `Oc1ccc(C2c3ccccc3Oc3ccccc32)c2cccnc12` .
Result: 8.07 µM

Query: Please report TGI with UACC-62 melanoma for item `CSc1nc(C)c(CCOC(C)=O)c(Cl)n1` .
Result: > 100 µM

Query: Please report TGI with UACC-62 melanoma for item `O=C(Nc1cccc(Cl)c1)c1cccc(NC2=C(Cl)C(=O)N(Cc3ccccc3)C2=O)c1` .
Result: > 100 µM

Query: Please report TGI with UACC-62 melanoma for item `CCOC(=O)c1cc(-c2ccccc2)[nH]c1N/N=C/c1ccc(Cl)cc1` .
Result: > 100 µM
